Where these numbers come from: paper PMC11823630

Task for the reader: assign each of the following molecules its reported MIC.
test system: P. aeruginosa PAO1; experiment: MIC, CLSI broth microdilution in BD Phoenix AST Broth; format: cell-based, Pseudomonas aeruginosa; conditions: Pseudomonas aeruginosa, PAO1, strain PAO1; agent alone; 37°C, 18–22 h; three biological replicates; read-out: MIC
Please state the value followed by its unit.

Form field MIC, entry "O=C(N[C@H](CO)[C@H](O)c1ccc([N+](=O)[O-])cc1)C(Cl)Cl" : 32 µg/mL

MIC in this record for CO/N=C(\C(=O)N[C@@H]1C(=O)N2C(C(=O)[O-])=C(C[N+]3(C)CCCC3)CS[C@H]12)c1csc(N)n1 [Cefepime, cefepime] : 2 µg/mL

Sample "C[C@@H](O)[C@H]1C(=O)N2C(C(=O)O)=C(SCCN=CN)C[C@H]12" ; MIC observed: 2 µg/mL

The measured MIC associated with "CCN[C@@H]1C[C@H](N)[C@@H](O[C@H]2OC(CN)=CC[C@H]2N)[C@H](O)[C@H]1O[C@H]1OC[C@](C)(O)[C@H](NC)[C@H]1O" reads 8 µg/mL

====

For each record, write down the corresponding MIC.
system: PAO1 mutant MIN1_RW01_2, mexR(G58E), pilB(G326D), hutC(Y181X); assay: MIC, Sensititre custom plate; type: cell-based; conditions: Pseudomonas aeruginosa, PAO1, read-out: MIC, Sensititre
# answer = value followed by unit

For record "C[C@@H](O)[C@H]1C(=O)N2C(C(=O)O)=C(SCCN=CN)C[C@H]12" the listed MIC is 1 µg/mL

Lab note: measured MIC of "CC1(C)S[C@@H]2[C@H](NC(=O)[C@H](C(=O)O)c3ccsc3)C(=O)N2[C@H]1C(=O)O" was 128 µg/mL

response.value for "CC(C)(O/N=C(\C(=O)N[C@@H]1C(=O)N2C(C(=O)[O-])=C(C[n+]3ccccc3)CS[C@H]12)c1csc(N)n1)C(=O)O" (field: MIC) = 4 µg/mL

====

Could you please report measured MIC for the items listed next?
tested on: PAO1 mutant MIN4_RW01_4, pmrB(Y98N); assay: MIC, Sensititre custom plate; type: cell-based; conditions: Pseudomonas aeruginosa, PAO1, read-out: MIC, Sensititre
Only the number, expressed in µg/mL, is required.

The value of MIC recorded for "NCC[C@H](O)C(=O)N[C@@H]1C[C@H](N)[C@@H](O[C@H]2O[C@H](CN)[C@@H](O)[C@H](O)[C@H]2O)[C@H](O)[C@H]1O[C@H]1O[C@H](CO)[C@@H](O)[C@H](N)[C@H]1O" when tested on PAO1 mutant MIN4_RW01_4, pmrB(Y98N) reads 4

Hey, PAO1 mutant MIN4_RW01_4, pmrB(Y98N) data for "NC[C@H]1O[C@H](O[C@H]2[C@H](O)[C@@H](O[C@H]3O[C@H](CO)[C@@H](O)[C@H](N)[C@H]3O)[C@H](N)C[C@@H]2N)[C@H](N)C[C@@H]1O" : MIC came out at 1

# lookup: "C[C@@H](O)[C@H]1C(=O)N2C(C(=O)O)=C(S[C@@H]3CN[C@H](C(=O)N(C)C)C3)[C@H](C)[C@H]12" on PAO1 mutant MIN4_RW01_4, pmrB(Y98N), MIC = 1

Note to self: MIC of "CC1(C)S[C@@H]2[C@H](NC(=O)[C@H](C(=O)O)c3ccsc3)C(=O)N2[C@H]1C(=O)O" with PAO1 mutant MIN4_RW01_4, pmrB(Y98N) was 16

Recorded MIC for "C[C@@H](O)[C@H]1C(=O)N2C(C(=O)O)=C(SCCN=CN)C[C@H]12" on PAO1 mutant MIN4_RW01_4, pmrB(Y98N) was 4
